Listed here are compounds together with their documented MIC.
system: Enterococcus faecalis; test: Antimicrobial activity Streptococcus faecalis ATCC 9790 by MTT assay; assay type: functional
Quick reminder: number only, in µg/mL, skip the unit.

Here's what some known entries look like.
                           structure_smiles  assay_metric  numeric_value
0  Oc1ccc(Cl)cc1/C=N/Nc1nc(-c2ccc(Cl)c(Cl)c2)cs1           MIC           12.5
1  Oc1c(Br)cc(Br)cc1/C=N/Nc1nc(-c2ccccc2)cs1           MIC             25
2  Oc1c(Cl)cc(Cl)cc1/C=N/Nc1nc(-c2ccc(Cl)c(Cl)c2)cs1           MIC           12.5

// field: MIC; key: Oc1ccc(Cl)cc1/C=N/Nc1nc(-c2ccccc2)cs1 ; value = 25

Recorded result, Oc1ccc(Br)cc1/C=N/Nc1nc(-c2ccc(Cl)cc2)cs1 , MIC: 12.5

Measured MIC, Clc1ccc(-c2csc(N/N=C/c3ccc(Br)cc3)n2)cc1Cl : 25

----------
Target protein (sequence): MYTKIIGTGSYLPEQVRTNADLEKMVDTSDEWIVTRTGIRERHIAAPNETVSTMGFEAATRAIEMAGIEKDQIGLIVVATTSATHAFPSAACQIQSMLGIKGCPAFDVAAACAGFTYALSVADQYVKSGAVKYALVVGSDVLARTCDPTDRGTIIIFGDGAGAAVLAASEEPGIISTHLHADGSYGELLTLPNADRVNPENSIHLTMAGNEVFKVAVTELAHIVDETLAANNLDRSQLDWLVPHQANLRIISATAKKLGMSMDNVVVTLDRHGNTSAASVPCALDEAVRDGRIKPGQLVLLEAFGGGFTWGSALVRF
Assay Metric: IC50 (µM)
// units = µM; emit number, no label

Input Oc1c(Br)cc(Br)cc1/C=N/Nc1nc(-c2ccc(Cl)cc2)cs1 . Output IC50: 78.4

----------
MIC values for the molecules below.
test system: Enterococcus faecalis; assay: Antimicrobial activity Streptococcus faecalis ATCC 9790 by MTT assay; assay type: functional
Respond numerically; units are µg/mL and should not be typed.

>>> df
                                   molecule        measured_target  assay_metric  numeric_value
0  CC1(C)S[C@@H]2[C@H](NC(=O)Cc3ccccc3)C(=O)N2[C@H]1C(=O)O [PENICILLIN G]  Enterococcus faecalis           MIC           1.56
1  Clc1ccc(-c2csc(N/N=C/c3ccc(Br)cc3)n2)cc1  Enterococcus faecalis           MIC             25

Value of MIC reported for the molecule Oc1c(Cl)cc(Cl)cc1/C=N/Nc1nc(-c2ccc(Cl)cc2)cs1 is 12.5

----------
test system: Enterococcus faecalis; test: Antimicrobial activity Streptococcus faecalis ATCC 9790 by MTT assay; type: functional
Assay Metric: MIC

Known MIC results, listed for orientation:
Molecule	Measured Target	MIC
Oc1ccc(Cl)cc1/C=N/Nc1nc(-c2ccc(Cl)cc2)cs1	Enterococcus faecalis	25 µg/mL
Fc1ccc(/C=N/Nc2nc(-c3ccc(Cl)cc3)cs2)cc1	Enterococcus faecalis	12.5 µg/mL
Oc1ccc(Br)cc1/C=N/Nc1nc(-c2ccc(Cl)c(Cl)c2)cs1	Enterococcus faecalis	> 50 µg/mL
NC[C@H]1O[C@H](O[C@H]2[C@H](O)[C@@H](O[C@H]3O[C@H](CO)[C@@H](O)[C@H](N)[C@H]3O)[C@H](N)C[C@@H]2N)[C@H](N)[C@@H](O)[C@@H]1O [BEKANAMYCIN]	Enterococcus faecalis	3.12 µg/mL
Cc1ccc(/C=N/Nc2nc(-c3ccccc3)cs2)cc1	Enterococcus faecalis	> 50 µg/mL
Clc1ccc(/C=N/Nc2nc(-c3ccccc3)cs2)cc1	Enterococcus faecalis	25 µg/mL
Cc1ccc(/C=N/Nc2nc(-c3ccc(Cl)c(Cl)c3)cs2)cc1	Enterococcus faecalis	> 50 µg/mL
COc1ccc(/C=N/Nc2nc(-c3ccc(Cl)cc3)cs2)cc1	Enterococcus faecalis	> 50 µg/mL

In plain terms, COc1ccc(/C=N/Nc2nc(-c3ccc(Cl)c(Cl)c3)cs2)cc1 has a documented MIC of > 50 µg/mL

Recorded result, Oc1c(Br)cc(Br)cc1/C=N/Nc1nc(-c2ccc(Cl)c(Cl)c2)cs1 , MIC: 6.25 µg/mL
